Experimental Details: qHTS Assay for Lipid Storage Modulators (AID 1519)
Experimental Conditions: Drosophila S3 cells, BODIPY lipid droplet/cell ratio, laser cytometry; measured here: cell count channel max response; cells loaded with oleic acid
Results filed as inconclusive are left out.
Assay Readout: max response (%)
Express your answer in %, writing the number without its unit.

Here are 4 compounds together with their reported answers.
{"Compound": "CCC(=O)OC1CCC2C3CCc4cc(O)ccc4C3CC[C@]12C (stereo partly drawn)", "max response (%)": 9.46}
{"Compound": "COCC(=O)N1CCC2(CCN(Cc3ccncc3)CC2)CC1", "max response (%)": 13.5}
{"Compound": "CC(C)CN1CCC2(CC1)CCN(C(=O)c1ccco1)CC2", "max response (%)": -0.576}
{"Compound": "O=S(=O)(c1ccccc1)N1CCC2(CCCN(c3ccccn3)C2)CC1", "max response (%)": 17.9}

State the recorded max response for this entry: "CN1CCN(c2ncc3nc(-c4cccs4)c(=O)n(Cc4cccs4)c3n2)CC1"
2.92

Which max response value is on record for "CN1CCN(c2ncnc3ccc(-c4ccoc4)cc23)CC1" ?
12.5

May I ask what max response has been recorded for "COc1ccc(C(=O)N2CCC3(CC2)CN(c2ccccn2)C3)cc1" ?
15.9

Item "N#C/C(=C\c1ccc(O)c(O)c1)C(=O)NCCCCc1ccccc1" has what recorded max response?
21.1

For the compound shown here, "O=C(O)[C@H]1CCCN(CCC=C(c2ccccc2)c2ccccc2)C1" , give the reported max response.
-22.7

max response lookup needed for "Cc1ccccc1-c1nc(NCCN2CCOCC2)c2ccccc2n1" , thanks.
17.4

Given "N#CCCn1c(=O)c(-c2cc(F)cc(F)c2)nc2cnc(Oc3ccccc3)nc21" , state its recorded max response.
10.8

Please give the measured max response for this compound: "O=C(c1cnccn1)N1CCC2(CC1)CN(c1ncccn1)C2"
6.2

Return reported max response; argument: "O=C(c1cccc(F)c1)N1CCC[C@@]2(CCN(c3ccccn3)C2)C1"
12.7

Recorded max response of "O=C(c1cc(C(F)(F)F)cc(C(F)(F)F)c1)N1CCC2(CC1)CCN(c1ccccc1)CC2" , please.
10.5

Could you share which max response value was measured for "CC(=O)N1CCC2(CC1)CN(C(=O)Nc1cccc(C#N)c1)C2" ?
-2.48

Tell me the measured max response of CC(=O)Oc1ccc2c(c1C(C)C)CCC1C(C)(C)CCC[C@@]21C (stereo partly drawn) , please.
13.7

Reported max response for "COc1cc(-c2coc3cc(OCc4ccccc4)c(OC)c(O)c3c2=O)cc(O)c1OC" : what is it?
-3.67

I'd like to know its max response. The compound in question is "CCCN1C[C@H](CSC)C[C@H]2c3cccc4[nH]cc(c34)C[C@@H]21"
-9.01

I'd like to know its max response. The compound in question is Oc1ccc2c(c1)OCC1(O)Cc3cc(O)c(O)cc3C21 (stereo not drawn)
-15.6

Quick one: max response of "Cc1noc(C)c1-c1cncnc1N1CCN(C)CC1" ?
15.1

====

Assayed Target: Cytochrome P450 2C19 (Homo sapiens)
Experimental Details: qHTS for inhibitors of CYP2C19 against the NCATS DSHEA and TCM libraries (AID 1919974);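 also: luminescence from luciferin released by CYP2C19 oxidation of a pro-luciferin substrate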
Experimental Conditions: CYP2C19 enzyme inhibition, luminescence qHTS; series mostly up to 34.1 µM
Records with an inconclusive call do not appear. Calls of active or inactive are those of the source. The call rests on the fitted dose curve; in most records, active means well fitted inhibition curve with a large enough effect; inconclusive means small, poorly fitted or top-dose-only effect; inactive means no such curve, though single readings can be large or run the other way.
Select the correct class. Options are active, inactive and nothing else.

{"Compound": "NC(Cc1c[nH]c2ccccc12)C(=O)O (centres undefined)", "Assayed Target": "Cytochrome P450 2C19 (Homo sapiens)", "Group Label": "active"}

Hi team, can someone confirm the assay call for "C=C(C)[C@H]1CC=C(C)C(=O)C1" ?
inactive

Which outcome was entered for the compound O=c1cc(-c2ccc(O)cc2)oc2cc(O[C@H]3OC(CO)C(O)C(O)C3O)cc(O)c12 (some centres undefined) in this test?
inactive

Field: outcome | Entry: "COc1ccc2ccc(=O)oc2c1"
inactive

====

Assayed Target: Glucocorticoid receptor (Homo sapiens)
Experimental Details: GR-EFC Redistribution (AID 451); also: potency is read from the fitted curve at half-maximal effect
Experimental Conditions: CHO-K1 GR-EFC translocation, beta-gal luminescence, 2 h
The source made the active and inactive calls. Calls follow the shape of the full dose curve.
Parameter: Potency. Scope: all listed entries.

{"Structure": "Cn1cc(-c2nc3cnc(Oc4cccc(Cl)c4)nc3n(C3CC3)c2=O)c2ccccc21", "Potency": "> 46 µM (inactive)"}
{"Structure": "COC(=O)N1CCC2(CCCN(C(c3ccccc3)c3ccccc3)C2)CC1", "Potency": "> 46 µM (inactive)"}
{"Structure": "O=C(c1cnccn1)N1CCC2(CCCN(c3ccc(-c4ccccc4)cc3)C2)CC1", "Potency": "> 46 µM (inactive)"}
{"Structure": "CC(=O)NCCNc1ncncc1-c1ccccc1C(F)(F)F", "Potency": "> 46 µM (inactive)"}
{"Structure": "O=C(c1cc(C(F)(F)F)cc(C(F)(F)F)c1)N1CCC2(CCCN(c3ccccn3)C2)CC1", "Potency": "> 46 µM (inactive)"}

# input compound: "CN(C)C(=O)c1ccc(-c2cncnc2NCc2cccs2)cc1" ; wanted: its Potency
> 46 µM (inactive)

Potency lookup needed for "COCCn1c(=O)c(C)nc2cnc(OCc3ccccc3)nc21" , thanks.
> 46 µM (inactive)

====

Assayed Target: Dual specificity protein kinase CLK4 (Homo sapiens) (UniProt Q9HAZ1)
Sequence (Q9HAZ1 whole entry, looked up): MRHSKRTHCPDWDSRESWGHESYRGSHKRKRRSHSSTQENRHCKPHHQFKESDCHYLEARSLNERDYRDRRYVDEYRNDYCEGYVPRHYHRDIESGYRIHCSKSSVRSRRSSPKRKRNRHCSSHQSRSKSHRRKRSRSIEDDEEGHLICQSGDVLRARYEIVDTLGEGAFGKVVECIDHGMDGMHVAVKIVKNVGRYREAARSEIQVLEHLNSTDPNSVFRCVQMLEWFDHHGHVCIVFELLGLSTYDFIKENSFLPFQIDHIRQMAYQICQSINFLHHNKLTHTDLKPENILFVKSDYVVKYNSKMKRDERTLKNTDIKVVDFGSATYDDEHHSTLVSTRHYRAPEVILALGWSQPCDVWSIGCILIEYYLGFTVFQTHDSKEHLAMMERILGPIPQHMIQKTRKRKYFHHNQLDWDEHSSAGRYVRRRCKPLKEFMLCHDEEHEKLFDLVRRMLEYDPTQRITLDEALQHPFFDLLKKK
Experimental Details: qHTS Assay for Inhibitors of CDC-like Kinase 4 (ADP-Glo Assay) (AID 1771); also: nearly all actives have a fitted effect of over 70% in size
Experimental Conditions: recombinant CLK4, ADP-Glo luminescence; series mostly up to 80 µM
Records with an inconclusive call do not appear. Activity calls are given as the source filed them. Calls come from the whole dose curve; as a rule, active = well fitted inhibition curve with a large enough effect; inconclusive = small, poorly fitted or top-dose-only effect; inactive = flat fitted curve, though single readings scatter.
Lab note: assign the record to one of 1 (yes) (active), 0 (no) (inactive)

{"Structure": "COc1cccc(Nc2ncc3nc(-c4cn(C)c5ccccc45)c(=O)n(C[C@H]4CCCO4)c3n2)c1", "Assayed Target": "Dual specificity protein kinase CLK4 (Homo sapiens) (UniProt Q9HAZ1)", "Group Label": "0 (no)"}
{"Structure": "COc1cccc(Cn2c(=O)c(-c3cccs3)nc3cnc(N4CCOCC4)nc32)c1", "Assayed Target": "Dual specificity protein kinase CLK4 (Homo sapiens) (UniProt Q9HAZ1)", "Group Label": "0 (no)"}
{"Structure": "CS(=O)(=O)Nc1cccc(-c2nc(-n3ccnc3)c3ccccc3n2)c1", "Assayed Target": "Dual specificity protein kinase CLK4 (Homo sapiens) (UniProt Q9HAZ1)", "Group Label": "1 (yes)"}
{"Structure": "O=c1c(CCc2ccccc2)nc2cnc(N3CCOCC3)nc2n1C1CC1", "Assayed Target": "Dual specificity protein kinase CLK4 (Homo sapiens) (UniProt Q9HAZ1)", "Group Label": "0 (no)"}
{"Structure": "CN1CCN(c2ncc3nc(-c4ccc(Cl)cc4)c(=O)n(Cc4ccc(F)cc4)c3n2)CC1", "Assayed Target": "Dual specificity protein kinase CLK4 (Homo sapiens) (UniProt Q9HAZ1)", "Group Label": "0 (no)"}
{"Structure": "O=c1c(-c2cc(F)cc(F)c2)nc2cnc(N3CCNCC3)nc2n1Cc1ccc(F)cc1", "Assayed Target": "Dual specificity protein kinase CLK4 (Homo sapiens) (UniProt Q9HAZ1)", "Group Label": "0 (no)"}
{"Structure": "O=c1c(-c2ccc(F)cc2)nc2cnc(N3CCNCC3)nc2n1Cc1cccs1", "Assayed Target": "Dual specificity protein kinase CLK4 (Homo sapiens) (UniProt Q9HAZ1)", "Group Label": "0 (no)"}
{"Structure": "CN(Cc1ccco1)c1cc(-c2ccccc2C(F)(F)F)ncn1", "Assayed Target": "Dual specificity protein kinase CLK4 (Homo sapiens) (UniProt Q9HAZ1)", "Group Label": "0 (no)"}
{"Structure": "Cc1cnc(CNc2ccnc(-c3cccnc3)n2)cn1", "Assayed Target": "Dual specificity protein kinase CLK4 (Homo sapiens) (UniProt Q9HAZ1)", "Group Label": "1 (yes)"}

Now, please, on to the next compound.
Which result was noted for this compound in the test: "COc1cccc(-c2ccc3ncnc(N(C)C)c3c2)c1"
1 (yes)

====

Assayed Target: Cytochrome P450 1A2 (Homo sapiens)
Experimental Details: p450-cyp1a2 (AID 410); also: potency is read from the fitted curve at half-maximal effect
Experimental Conditions: recombinant CYP1A2, luciferin-ME demethylation, luminescence; series mostly up to 57 µM
Inconclusive results are not listed. Calls of active or inactive are those of the source. The call rests on the fitted dose curve.
Assay Readout: Potency

Please review the following examples before continuing.
{"Structure": "Cc1ccccc1-c1cncnc1NCCN1CCOCC1", "Observed Result": "15.8 µM (active)"}
{"Structure": "CC(=O)NCCNc1ccnc(-c2ccccc2C)n1", "Observed Result": "3.98 µM (active)"}
{"Structure": "Cn1cccc1C(=O)N1CCC2(CCCN(Cc3ccc(C#N)cc3)C2)CC1", "Observed Result": "12.6 µM (active)"}
{"Structure": "O=c1c(CCc2ccccc2)nc2cnc(N3CCOCC3)nc2n1CCc1ccccc1", "Observed Result": "25.1 µM (active)"}

State the recorded Potency for this entry: "Cc1cnc(CNc2nc(-c3ccoc3)nc3ccccc23)cn1"
2 µM (active)

// lookup Potency for "COCCn1c(=O)c(C)nc2cnc(Oc3cccc(Cl)c3)nc21"
12.6 µM (active)

Query: Potency; subject: "CCNc1ncc2ncc(=O)n(C[C@H]3CCCO3)c2n1"
10 µM (active)

Entry under review: "COc1ccc(-c2nc3cnc(Nc4cccc(OC)c4)nc3n(Cc3cccs3)c2=O)cc1" . Reported Potency?
inactive

Please look up its Potency: "COc1ccc(Oc2ncc3nc(C)c(=O)n(C)c3n2)cc1"
12.6 µM (active)

Report Potency for "O=C(O)/C=C\c1ccc(O)c(O)c1" please.
inactive

What value of Potency has been recorded for this entry: "O=c1c(-c2cccc(F)c2)nc2cncnc2n1C1CC1"
1.58 µM (active)

Look at this molecule and give its reported Potency. "COCCNc1nc(-c2ccccc2C)nc2ccccc12"
1.26 µM (active)
